Tested on: Haemophilus influenzae
Assay: Antibacterial activity against genetically beta-lactamase-negative ampicillin-resistant Haemophilus influenzae type b with an amino acid substitution in variable mutated locus Asn-526 or Arg-517 of ftsI gene by broth microdilution method
Assay type: functional
Reported MIC90 values for the following compounds.

>  <Compound>
CO/N=C(\C(=O)N[C@@H]1C(=O)N2C(C(=O)O)=C(COC(N)=O)CS[C@H]12)c1ccco1 [CEFUROXIME]

>  <MIC90>
16 µg/mL

$$$$
>  <Compound>
CC[C@H]1OC(=O)[C@H](C)C(=O)[C@H](C)[C@@H](O[C@@H]2O[C@H](C)C[C@H](N(C)C)[C@H]2O)[C@](C)(OC)C[C@@H](C)C(=O)[C@H](C)[C@H]2N(CCCCn3cnc(-c4cccnc4)c3)C(=O)O[C@]12C [TELITHROMYCIN]

>  <MIC90>
4 µg/mL

$$$$
>  <Compound>
CO/N=C(\C(=O)N[C@@H]1C(=O)N2C(C(=O)OCOC(=O)C(C)(C)C)=C(/C=C\c3scnc3C)CS[C@H]12)c1csc(N)n1 [CEFDITOREN PIVOXIL]

>  <MIC90>
0.12 µg/mL

$$$$
>  <Compound>
C[C@@H](O)[C@H]1C(=O)N2C(C(=O)O)=C(S[C@@H]3CN[C@H](C(=O)N(C)C)C3)[C@H](C)[C@H]12 [MEROPENEM]

>  <MIC90>
0.25 µg/mL

$$$$
